FYI, the data here is from paper PMC9911399.

The following binders are listed with their measured binding signal values.
Tested system: T1, RBFOX1 RRM (Homo sapiens, UniProt Q9NWB1 109-208)
T1 sequence: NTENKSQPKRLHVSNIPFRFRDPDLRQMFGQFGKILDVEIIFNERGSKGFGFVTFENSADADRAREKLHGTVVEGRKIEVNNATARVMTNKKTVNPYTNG
Assay summary: EMSA; HiTS-Eq, 1 nM pool, 10 min; buffer printed only for the single-RNA assays: 10 mM Tris pH 7.5, 150 mM NaCl, 3.4 mM EDTA, 0.001% NP-40, 30 C
Experimental setup: tags: His6 N-terminal (pET28a); label: 5' 32P
In all, about 16,000 sequences were measured (“ka relative to ugcaugu”: median about 0.0091, highest 2% from about 0.032 on). Shown is part of a subset that was picked to be rich in the highest values.
Measured endpoint: binding signal

1) AACGCGA (DNA:RNA) RNA: GGGAGACCGGAAUUCAGAUUGUCCAACGCGAUUAAAUCCCGUCGUAGCCACCA DNA 1: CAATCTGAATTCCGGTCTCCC DNA 2: TGGTGGCTACGACGGGATT | 0.00453 KA relative to UGCAUGU
2) AAACGGU (DNA:RNA) RNA: GGGAGACCGGAAUUCAGAUUGUCCAAACGGUUUAAAUCCCGUCGUAGCCACCA DNA 1: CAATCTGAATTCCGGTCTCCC DNA 2: TGGTGGCTACGACGGGATT | 0.0059 KA relative to UGCAUGU
3) ACUAAUA (DNA:RNA) RNA: GGGAGACCGGAAUUCAGAUUGUCCACUAAUAUUAAAUCCCGUCGUAGCCACCA DNA 1: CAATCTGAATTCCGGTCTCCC DNA 2: TGGTGGCTACGACGGGATT | 0.00101 KA relative to UGCAUGU
4) AAGCGGU (DNA:RNA) RNA: GGGAGACCGGAAUUCAGAUUGUCCAAGCGGUUUAAAUCCCGUCGUAGCCACCA DNA 1: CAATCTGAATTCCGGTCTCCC DNA 2: TGGTGGCTACGACGGGATT | 0.00838 KA relative to UGCAUGU
